System: HOP-62 NSCLC
Assay: NCI tumour cell line growth inhibition, 48 h; in the data active = GI50 below about 0.43 µM; inactive = the rest
Outcome codes: active, inactive

In [3]: df
Out[3]:
                                   compound  system_under_test  assigned_label
0  CCCCCCCCCCCCCCCCCC(=O)[O][Sn]([CH2]CCC)([CH2]CCC)[CH2]CCC       HOP-62 NSCLC          active
1  O=[N+]([O-])c1ccc(Oc2cccnc2)c([N+](=O)[O-])c1       HOP-62 NSCLC        inactive
2  O=C1OCC2=C1C(c1cccc([N+](=O)[O-])c1)c1cc3c(cc1N2CCO)CCC3 (stereo not given)       HOP-62 NSCLC          active
3  COc1ccc(S(=O)(=O)Nc2cc(/C=C\c3cc(OC)c(OC)c(OC)c3)cc(OC)c2OC)cc1OC       HOP-62 NSCLC        inactive
4   N#Cc1cc(-c2ccccc2)[nH]c1-c1nccc2ccccc12       HOP-62 NSCLC        inactive
5  NC(=O)c1ncn(C2OC(CO)C(O)C2O)n1 (stereo not given)       HOP-62 NSCLC        inactive
6          Nc1ccccc1C#Cc1ccccc1C#Cc1ccccc1N       HOP-62 NSCLC        inactive
7  COc1c(Nc2ncc(Cl)c(N[C@@H]3[C@H]4C=CC(C4)[C@@H]3C(N)=O)n2)ccc2c1CC[C@@H](N1CCOCC1)CC2       HOP-62 NSCLC        inactive
8    CCCCN(CCCC)c1cc(C(=O)CCCCCN)c2ccccc2n1       HOP-62 NSCLC        inactive
9  O=C(/C=C\c1cccc([N+](=O)[O-])c1)c1ccccc1       HOP-62 NSCLC        inactive
